Values compiled from PubChem BioAssay (NCI).

- test-summary: NCI Yeast Anticancer Drug Screen. Data for the mlh1 rad18 strain (AID 175)
- condition-notes: S. cerevisiae mlh1 rad18 strain growth inhibition; at 50.0 µM; stronger effect = higher value
Compounds without any hit were thinned out: in the full panel of roughly 79,000, 15% have a hit.
This section presents compounds with their documented growth inhibition values.
Field format: number, assumed %, no unit text.

Illustrative cases are given below, each with its answer.
>  <compound>
CCCCCCCCCCCCCCCC1=NN(c2ccc([N+](=O)[O-])cc2)C(=O)C1

>  <metric-name>
growth inhibition

>  <numeric-readout>
0.75

$$$$
>  <compound>
O=C1CSSCC(=O)NCCCN1

>  <metric-name>
growth inhibition

>  <numeric-readout>
28.2

$$$$
>  <compound>
N#C/C=C\c1ccc(Cl)cc1

>  <metric-name>
growth inhibition

>  <numeric-readout>
-3.05

$$$$
>  <compound>
CSC(=Nc1ccc(Br)cc1)NC(=O)c1cc([N+](=O)[O-])cc([N+](=O)[O-])c1

>  <metric-name>
growth inhibition

>  <numeric-readout>
-18.8

$$$$

For N#CCCCN1CCOCC1 the compound record lists growth inhibition as 3.6

For O=C(C[n+]1ccnc2ccccc21)c1ccc(Br)cc1 the compound record lists growth inhibition as 13

For CC/C(=N/O)C(C)C(=O)CCC(=O)Nc1ccc(Cl)cc1 (centres undefined) the compound record lists growth inhibition as -5.65

For Cc1cc([N+](=O)[O-])ccc1NC(=O)C(Br)C(Br)C(=O)O (centres undefined) the compound record lists growth inhibition as 49.1

For N#Cc1c(-c2ccccc2)[nH]c2ccc(Cl)cc2c1=O the compound record lists growth inhibition as -28.1

For O=C(Nc1nc2c(ncn2C2OC(CO)C(O)C2O)c(=O)[nH]1)c1ccccc1 (centres undefined) the compound record lists growth inhibition as 15.6

---

- test-summary: NCI Yeast Anticancer Drug Screen. Data for the sgs1 mgt1 strain (AID 161);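 further: 0% = growth of cultures given vehicle only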
- condition-notes: S. cerevisiae sgs1 mgt1 strain, at 50.0 µM, stronger effect = higher value
About 79,000 compounds went through this panel and 15% of them were active in at least one assay; those are over-represented in the sample as a whole.
This section presents compounds with their documented growth inhibition values.
Field format: number, assumed %, no unit text.

Illustrative cases are given below, each with its answer.
>  <compound>
COc1ccc(-n2[nH]nc(C(N)=O)c2=O)cc1

>  <growth inhibition (%)>
-33.4

$$$$
>  <compound>
CC(=O)c1ccccc1Cc1cccc2c(Cl)cccc12

>  <growth inhibition (%)>
10.1

$$$$
>  <compound>
CCCCOC(=O)/C(CC(=O)C=C(C)C)=N\NS(=O)(=O)c1ccc(C)cc1

>  <growth inhibition (%)>
-10.5

$$$$

For COc1ccccc1NC(=O)CC(=O)N1N=C(N(c2ccccc2)c2ccccc2)CC1c1ccccc1 (stereo unspecified) the compound record lists growth inhibition as -7.15

For O=C(O)C(Cc1c[nH]c2ccccc12)N1C(=O)c2ccccc2C1=O (stereo unspecified) the compound record lists growth inhibition as -8.15

For CC(C)(CN1CCCCC1)C(=O)/C=C/c1ccc(Br)cc1 the compound record lists growth inhibition as 59.6

---

- test-summary: NCI Yeast Anticancer Drug Screen. Data for the mec2-1 strain (AID 157)
- condition-notes: S. cerevisiae mec2-1 strain, at 50.0 µM, stronger effect = higher value
Compounds without any hit were thinned out: in the full panel of roughly 79,000, 15% have a hit.
This section presents compounds with their documented growth inhibition values.
Field format: number, assumed %, no unit text.

Illustrative cases are given below, each with its answer.
>  <compound>
O=C1C=CC(=O)c2c1c1c(c3c2C2c4ccccc4C3c3ccccc32)C2c3ccccc3C1c1ccccc12

>  <growth inhibition (%)>
-16.1

$$$$
>  <compound>
O=C(Nc1cccc2ccccc12)ON1C(=O)c2ccccc2C1=O

>  <growth inhibition (%)>
-39.6

$$$$
>  <compound>
NC1=C(O)C(=O)C(c2ccc3c(c2)CCC3)O1 (stereo not given)

>  <growth inhibition (%)>
-14.7

$$$$
>  <compound>
CSc1ncc(Br)c(Sc2nccn2C)n1

>  <growth inhibition (%)>
7.3

$$$$
>  <compound>
NC(=O)/C(=N/O)c1ccccc1

>  <growth inhibition (%)>
13.2

$$$$
>  <compound>
Cc1ccc(C(=O)C[n+]2ccccc2)c(O)c1

>  <growth inhibition (%)>
-9.9

$$$$
>  <compound>
Cc1cc(Cl)c2ccc(Cl)c(C)c2n1

>  <growth inhibition (%)>
-8.55

$$$$
>  <compound>
O=c1[nH]c(-c2ccc(Cl)cc2)cs1

>  <growth inhibition (%)>
-14.8

$$$$

Kindly review the next compound as well.
For N=C(N)n1ncc(Cl)c(Cl)c1=O the compound record lists growth inhibition as 36.2

---

- test-summary: NCI Yeast Anticancer Drug Screen. Data for the sgs1 mgt1 strain (AID 161);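 further: 0% = growth of cultures given vehicle only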
- condition-notes: S. cerevisiae sgs1 mgt1 strain, at 50.0 µM
This is part of a sample that, as a whole, favours compounds with a hit. Of some 79,000 tested, about 15% had one in any assay. Calls of active or inactive are those of the source. Rule as the data show it: active = growth inhibition above about 70%; inactive = the rest.
Give one outcome, nothing more. List: active, inactive

>  <compound>
NC(=O)C1C(=O)c2cccc3c2C1CCCC3 (stereo unspecified)

>  <label-class>
inactive

$$$$
>  <compound>
COCc1ccc(C(C)(C)CC(C)(C)C)cc1

>  <label-class>
inactive

$$$$
>  <compound>
O=C1CCC(=O)N1CCc1cccc2ccccc12

>  <label-class>
inactive

$$$$
>  <compound>
Cc1cc2[nH]c(=O)n(C3OC(CO)C(O)C3O)c2cc1C (stereo unspecified)

>  <label-class>
inactive

$$$$
>  <compound>
CC(C)(CO)[C@@H](O)C(=O)NCCC(=O)O

>  <label-class>
inactive

$$$$

Identify the outcome logged in this assay for the compound shown: O=C(Cc1ccccc1)N(c1ccccc1)c1ccccc1
inactive

Identify the outcome logged in this assay for the compound shown: O=C(O)C(O)c1ccc(Cl)c(Cl)c1 (stereo unspecified)
inactive

Identify the outcome logged in this assay for the compound shown: O=C(CO)CC(=O)CCC(=O)Nc1cccc([N+](=O)[O-])c1
inactive

---

- test-summary: NCI Yeast Anticancer Drug Screen. Data for the bub3 strain (AID 167)
- condition-notes: S. cerevisiae bub3 mutant strain, at 50.0 µM
Compounds without any hit were thinned out: in the full panel of roughly 79,000, 15% have a hit. Calls of active or inactive are those of the source. No stated cut-off is given here; in the data, active means growth inhibition above about 70%; inactive means the rest.
Give one outcome, nothing more. List: active, inactive

Previously resolved entries follow.
>  <molecule>
Nc1nc(N)nc(-c2ccccc2-c2nc(N)nc(N)n2)n1

>  <label-class>
inactive

$$$$
>  <molecule>
CC(C)NCC(C)(C)[N+](=O)[O-]

>  <label-class>
inactive

$$$$
>  <molecule>
CC(=O)[C@H]1CC[C@@H]2[C@]1(C)CC=C1[C@]23C=C[C@]2(C[C@@H](O)CC[C@]12C)C(C(=O)O)C3C(=O)O (stereo partly specified)

>  <label-class>
inactive

$$$$

Identify the outcome logged in this assay for the molecule shown: CCOc1ncc(C(O)c2ccc(F)cc2)c(OCC)n1 (stereo unspecified)
inactive

---

- test-summary: NCI Yeast Anticancer Drug Screen. Data for the rad50 strain (AID 155);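 further: 0% = growth of vehicle-only cultures of the same strain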
- condition-notes: S. cerevisiae rad50 strain growth inhibition; at 50.0 µM; stronger effect = higher value
- Experimental: Growth inhibition of yeast strains with defined genetic alterations is measured as a screen for potential anti-cancer activity. Selected strains with alterations in DNA damage repair or cell cycle control were exposed to compounds and growth inhibition was measured relative to vehicle treated controls. The strain used in this assay is rad50
About 79,000 compounds went through this panel and 15% of them were active in at least one assay; those are over-represented in the sample as a whole.
This section presents compounds with their documented growth inhibition values.
Field format: number, assumed %, no unit text.

Illustrative cases are given below, each with its answer.
>  <compound>
CCOc1ccccc1C(=O)N(CC)CC

>  <numeric-readout>
-8.55

$$$$
>  <compound>
OCC(O)C(O)C(O)c1nn(-c2ccccc2)c2nc3ccc(Cl)cc3nc12 (configuration not stated)

>  <numeric-readout>
-0.8

$$$$
>  <compound>
O=C1CSC(=S)N1.[Cu+2]

>  <numeric-readout>
-7.9

$$$$
>  <compound>
Cc1cc(Cl)ccc1NC(=O)/C(=N\NC(C)(C)C)C(C#N)c1nc(-c2ccc([N+](=O)[O-])cc2)cs1 (configuration not stated)

>  <numeric-readout>
23.8

$$$$

For O=C1/C(=C/c2ccc(F)cc2)CC/C1=C\c1ccc(F)cc1 the compound record lists growth inhibition as -10.5

For CSc1nc(NN)c([N+](=O)[O-])c(SC)n1 the compound record lists growth inhibition as -7.55

For OC(CNc1ccccn1)c1ccccc1 (configuration not stated) the compound record lists growth inhibition as -3.9

For Nc1nc(NCCO)c(N=O)c(=O)[nH]1 the compound record lists growth inhibition as 5.1

For O=C(NC(=S)OC1CCCC1OC(=S)NC(=O)c1ccccc1)c1ccccc1 (configuration not stated) the compound record lists growth inhibition as -21.5

For Nc1nc(N)nc(SCCO)n1 the compound record lists growth inhibition as -25.1

For COc1ccc(/C=N\S(=O)(=O)c2ccc(OC)cc2)cc1 the compound record lists growth inhibition as 16.3

For [Cl][Pt+2][Cl].[NH-]CC1([NH-])CCCCC1 the compound record lists growth inhibition as -10.2
